Assay: yeast display, Sf9 membrane polyspecificity reagent, FACS + sequencing; frameworks hold sequencing errors
PROPERTY: polyreactivity (PSR sort gate)

>>> observed_value("QVQLQESGGGLVQVGGSQRLSCAASGNIFFNYAMGWYRHAQGKEREFDASINHGTSINYEDSVKGRFTISRDNAKNTVYLQMNSLKPEDTAVYYCAADLSWTDNLFYWGQGTQVTVSS")
"low polyreactivity"
>>> observed_value("QVQLVESGGGLVQAGGSLRLSCPASGRIIAWYAMGWYRQAPGKERELVAVITSSGGSTYYADSVKGRFTISRDNAKNTVYFMMNRLKPEDTAVYYCARKVVSPAWSHDFYYWGLGTQVTVSS")
"low polyreactivity"

###

Test: yeast display, Sf9 membrane polyspecificity reagent, FACS + sequencing; frameworks hold sequencing errors
PROPERTY: polyreactivity (PSR sort gate)

>>> observed_value("QVQRVESGGGLVQAGGSLRLSCAASGRTFLQYAMGWYSQAPGKVREFVAAINWSGGSTYYAASVKRRFTISRDNAKNTVYLPMHSLKPEDTAVYYCAARRVYLGEYDYWGQGTQVTVSS")
"high polyreactivity"
>>> observed_value("QVQLVESGGGLVQAGGSLRLSCAASGRTFYYYAMGWYRQAPGKERELVASITSGDGTYYADSVKGRFTISRDNAKNTVYLQMNSLKPEDTAVYYCAADIFYKFSYYPWYPYRDYYYSGQGTQVTVSS")
"low polyreactivity"
>>> observed_value("QVQLVESGGGLVQAGGSLRLSCAASGNIFYRNAIGWYRQAPGKERELVAAIRGGGSTNYADSVKGRFTISRDNAKNTVYLQMNSLKPEDTAVYYCNTVRSPPGHDYWGQGTQVTVSS")
"low polyreactivity"
>>> observed_value("QVQLVESGGGLVQAGGSLRLSCAASGFIFYAYAMGWDRQAPGKERELVAAISRGGGSTYYADSVKGRFTISRDNAKNTVYLQMNSLKPEDTAVYYCAADFYYDRDVDFWGQGTQVTVSS")
"high polyreactivity"
>>> observed_value("QVQLVESGGGLVQAGGSLRLSSAASGRILPVNTMGWYRQAPGKERELVAVITRSGGRTYYADSVKGRFTISRDYAKNTVYLQMNSLKPEDTAVYYCAADVGFRWYRYTAGPLEYDYWGQGTQVTVSS")
"high polyreactivity"
>>> observed_value("QVQLVESGGGLVQAGGSLRLSCAASGFTIRNNAMGWYRQAPGKERELVAAISYSGGSTYYADSVKGRFTISRDNAKNTVYLQMNSLKPEDTAVYYCNRRRWSYLEYDYWGQGTQVTVSS")
"low polyreactivity"
>>> observed_value("QVQLVESGAGLVQAGGSLRLSWAASGFTFAQNAMGWYTQAPGKERELVAAISRRGGSTYYADSVKGRFTISRDNAKNTVYLQMNSLKPEDTAVYYCDTAGTYTGGEGYWGQGTQVTVSS")
"high polyreactivity"
>>> observed_value("QVQLVESGLGLVQAGRSLRLSCASSGRIFNYYAMVWYRQAPGKERELVAGINWSGTRTYYADSVKGRFTISRDNAKNTVYLQMNSLKPEDTAVYYCNAGRTWRAFTGDEYWGQGTQVSVSS")
"high polyreactivity"
>>> observed_value("QVQLVESGGGLVQAGGSLRLSCAASGSIFYSNAMGWYRQAPGKERELVAAINWSGVRTYYADSVKGRFTISRDNAKNTVYLQMNSLKPEDTAVYYCAAKTYQQQIVRPMYYWGQCTQVTVSS")
"high polyreactivity"
>>> observed_value("QVQLVESGGGLVQAGGSLRLSCAASGSTFGPYAMGWYRQAPGKERELVAAIDKSGGSTYYADSVKGRFTISRDNAKNTVYLQMNSLKPEDTAVYYCAVEKRYPRRRYDYWGQGTQVTVSS")
"low polyreactivity"
>>> observed_value("QVQLVESGGGLVQAGGSLRLSCAASGGTFEFYTMGLYRQAPGKERELVAVINASGDSTYYADSVKGRFTISRDNAKNTVYLQMNSLKPEDTAVYYCAADHRGEYDYWGQGTQVTVSS")
"low polyreactivity"

###

Experiment: yeast display, Sf9 membrane polyspecificity reagent, FACS + sequencing; frameworks hold sequencing errors
PROPERTY: polyreactivity (PSR sort gate)

>>> observed_value("QVQLVESGGGLVQAGGSLRLSCAASGIIFAGYAMGWYRQAPGKVRELVAAISGSGGRTYYADSVKGRLTISRDNAKNTVYLQMNSLKPEDTAVSFCAAEGRSEWGGDYYYGGQGTQVTVSS")
"low polyreactivity"
>>> observed_value("QVQLVESGGGLVQAGGSLRLSCAASGSIFWVYAMGWYRQAPGKERELVAAISQSGGSTYYADSVKGRFTISRDNAKNTVYLQMNSLKPEYTAVYYCAAYVRGQNYDYWGQGTQVTVSS")
"high polyreactivity"
>>> observed_value("QVQLVESGGGLVQAGGSLRLSCAASGIIFTYAMGWYRQAPGKERELVAAIDWRGGRTYYADSVKGRFTISRDNAKNNVYLQMNSLKPEDTAVFFCAARLPGGTYYWGQGTQVTVSS")
"high polyreactivity"
>>> observed_value("QVQLVESGVGLVQAGGSLRLSCAASGFTISYYTIGWSRQAPGKDRELVAAISSTGVSTYYADSVKGRFTISRDTAKNTVYLPLNSLKPEDTSVYYCAADYYGVYEYYYWGQGTQVTVSS")
"high polyreactivity"
>>> observed_value("QVQHVESVGGLVQAGGSLRLSCAASGSIFSNNVMGWYRQAPGKERELVAAITVSGGRTYYADSVKGRFTISRDNAKNSVYLQMNSLKPEDTAVYYCATGVWKYSPDGDVGDQLSGYDYWGQGTQVTVSS")
"low polyreactivity"
>>> observed_value("QVQLVESGGGLVQAGGRLRLSCAASGRIFYFNAMGWYRQAPGKEREFVASINSIGDSTYYADSVKGRFTISRDNAKNTVYLQMNSLKPEDTAVYYCNADHGVINYRLDYWGQGTQVTVSS")
"low polyreactivity"
>>> observed_value("QVQLVESGGGLFQAGGSLRLSCAASGFTFSNYAMGWYRKAPGKERELVAAITRRGGRTRYADSVKGRFTISRDNAKNTVYLQMNSLKPEDTAVYYCARSRYRYIVTTLYLYDYWGQGTQVTVSS")
"high polyreactivity"
>>> observed_value("QVQLVESGGGLVQAGGSLRLSCAASGITFRSYAMGWYRQAPGKERELVAAIRSGGSTSYADSVKGRFTISRDNAKTTVYLQMNSLKPEDTAVYYCAAGGYVPLPDITFWKFGYWGQGTQVTVSS")
"low polyreactivity"
>>> observed_value("QVQLVESGGGLVQAGGTLRLTCAASGSIFHWNTMGWYRHAPGKESELFATITQRGGSTYYADSVKARFTLSRDNAKNTVYLQMNSLKPEDTAVYYCAAAIYRASRRRTSYSYDYWGQGTQVTVSS")
"high polyreactivity"
>>> observed_value("QVQLVESGGGLVQAGGSLRLSCAASGSTFGPNAMGWYRQAPGKERELVATISSGGSTYYADSVKGRFTISRDNAKNTVYLQMNSLKPEDTAVYYCAVRTIIRPVDLYDYWGQGTQVTVSS")
"low polyreactivity"
>>> observed_value("QVQLVESGGGLVQAGRSLRLSCAASGSPLYSYAMGWYRQAPGKEREFVAAITSDDGSTYYADSVKGRFTISRDNAKNTVYLPLTSLKPEDTAVYYCATAASVEYNYWGQCTQVTVSS")
"low polyreactivity"

###

Assay: yeast display, Sf9 membrane polyspecificity reagent, FACS + sequencing; frameworks hold sequencing errors
PROPERTY: polyreactivity (PSR sort gate)

>>> observed_value("QVQLVESGGGLVQAGGSLRLSCAASGRISIIYAMGWYRQAPGKERELVARISGSGGSTNYADSVKGRFTISRDNAKNTVYLQMKSLKPEDTAVYYCAAVPWRIHKYYYWGQCTQVTVSS")
"high polyreactivity"
>>> observed_value("QVQLVESGGGLVQAGGSLRLSCDASGSTFYPYVMGWYRQAPGKERELVARITWSGGSTYYADSVKGRFTISRDNAKNTVYLQMNSLKPEDTAVYYCAALRYVNLLAQAYEYWGQGTQVTVSS")
"high polyreactivity"
>>> observed_value("QVQLVESGGGLVQAGGSLRLSCAASGRTFGRYARGWYRQAPGKETELVAAIRSGASTYYADSVKGRFTISRDNAKNTVYLQKNSLKPEDTAVYYCAVDTLQGARVTSPSGDYDYWGQGTQVTVSS")
"low polyreactivity"
>>> observed_value("QVQLVESGGGLVQAGGSLRLSCAASGSTFGPYARGWSRQAPGKERELVSTITRNGGSTYYADSVKGRFTISRDNAKNTVYLQMNSLKPEDTAVYYCNAEGRWSSFTQRMDYWGQGTQVTVSS")
"low polyreactivity"
>>> observed_value("QVQLVESGGGLVQAGGSLRLSCAASGSIFSGNPMGWYRQAPGKERELVAAIDWSGDSTYYADSVKGRFTISRDNAKNTVYLQMNSLKPEDTAVYYCNTVSFSWGYSAYDYWGQGTQVTVSS")
"low polyreactivity"
>>> observed_value("QVQLVESGGGLFQAGGSLRLSCAASGIIFYYNTMGWYRQAPGKDRELVAAISQRGRSTYYADSVKGRFTISRDNAKNTVYFHLNSLKPEDTAVFYCNKLRNSHGFRYDYWGQGTQVTVSS")
"high polyreactivity"
>>> observed_value("QVQLVESGGALLQAGGSLRLSCAASGFIFRYYAMGWYRQAPGKERELVAAISESGASTYYADSVKGRFTISRDNAKNSVYLQMNSLKPEVTAVYYCAAKPRNSGPYYFYDLNYWGQGTQVTVSS")
"high polyreactivity"
>>> observed_value("QVQLVESGGGLVQAGGSLRLSCAASGSTFTTYDMGWYRQAPGKERELVAGITGSGTSTFYADSVKGRFTISRDNAKNTVYLQMKSLKPEDTAVYYCATDWYTPEEYVTGAIEEYYWGQGTLVTVSS")
"low polyreactivity"
>>> observed_value("QVQLVESGGGLVQAGGSLRLSCAASGSIFRLYAMGWYRQAPGKERELVAAITGRGTSTYYADSVKGRFTISRDNAKNTVYLQMNSLKPEDTAVYYCAARLFKNSGTTYDRYGYWGQGTQVTVSS")
"high polyreactivity"
>>> observed_value("QVQLVESGGGLVQAGGSLRLSCAASMGLYRQAPGKERDLVATITSDAGTNYADSVKGRFTISRDNAKNTVYLQRNSLKPEDTAVYYCNADGYDSSDFGEGDYWGQVTQVTVSS")
"low polyreactivity"
>>> observed_value("QVQLVESGGGLVQAGGSLRLSCAASGRTFRYNAMGWYRQAPGKERELVASITSGGSTNYADSVKGRFTISRDNAKNTVYLQMNSLIPEDTAVYYCAADERRPYWQHSIGSGRPFDYWGQGTQVTVSS")
"low polyreactivity"
